Recorded measurements of TGI, one per entry
# System: SF-268 CNS
# method description: NCI tumour cell line growth inhibition, 48 h

CCOC(=O)C(CC(C)C)NC(=O)C(N)Cc1ccc(N(CCCl)CCCl)cc1 (centres undefined) : 16.8 µM
CCOC(=O)Nc1nc(-c2ccccc2)c(C)s1 : > 100 µM

Asked: Specify the recorded TGI for C=CC[C@H](O)[C@@](NC(=O)OCc1ccccc1)(Sc1ccc(C)cc1)C(F)(F)F , system: SF-268 CNS.
Given back: 47.9 µM

Asked: Report TGI from SF-268 CNS testing of CC1(C)OP(=O)(c2ccccc2)C=C1Br (centres undefined)
Given back: > 100 µM

Asked: Enter measured TGI, system SF-268 CNS, for the molecule shown: Nc1ccc(N=Nc2ccc(-c3ccc(N=Nc4c(S(=O)(=O)O)cc5cc(S(=O)(=O)O)c(N=Nc6ccc([N+](=O)[O-])cc6)c(N)c5c4O)cc3)cc2)c2cc(S(=O)(=O)O)ccc12
Given back: > 100 µM

Asked: Give TGI only, for O=C(NC(=S)Nc1ccc(-c2nc3ccccc3[nH]2)cc1)c1ccc2ccccc2c1 , using SF-268 CNS data.
Given back: > 100 µM

Asked: Give measured TGI for Cc1ccc(C)c(N2C(=O)C(=O)C(c3nc4ccccc4s3)C(=O)C2=O)c1 (SF-268 CNS).
Given back: > 100 µM

Asked: GET TGI where system = SF-268 CNS and item = CCCC(c1cc(C(C)(C)C)c(O)cc1C)c1cc(C(C)(C)C)c(O)cc1C
Given back: 15.1 µM

Asked: Using SF-268 CNS as the test system, report measured TGI of CC1OC(n2ccc3ccc([N+](=O)[O-])cc32)C(O)C(O)C1O (centres undefined) .
Given back: > 100 µM

###

Documented TGI across a set of compounds
# System: PC-3 prostate
# method description: NCI tumour cell line growth inhibition, 48 h
Reply with just the number (in µM).

Asked: Provide only the value of recorded TGI for CC[n+]1c(/C=C/c2ccc(N3CCCC3)cc2)cccc1/C=C/c1ccc(N2CCCC2)cc1
Given back: 1.23

Asked: Name the recorded TGI of the compound listed here: O=C1NC(=N[C@@H]2C[C@H]2c2ccccc2)S/C1=C\c1ccc2ncccc2c1
Given back: 9.09

###

Property: TGI; scope: individual compounds
# Tested on: OVCAR-4 ovarian
# method description: NCI tumour cell line growth inhibition, 48 h

Answered cases to consult:
CCOC(=O)C(=O)N=Nc1c(O)[nH]c2ccccc12 : > 100 µM
CC(=O)c1cc2sc3ccccc3c2[nH]1 : > 100 µM
c1ccc(C2C3=C(c4ccccc4CC3)N3c4cc5nc6ccccc6nc5cc4NC34CCCCC24)cc1 (stereo unspecified) : > 10 µM
CCc1nc2c(n1CC)C(=O)c1ccccc1C2=O : > 100 µM
CC1=CC=C2C(C)(C)CC[C@@H]3OC(=O)[C@H]1[C@]23C : > 100 µM

We now examine a further compound.
Asked: Fill in TGI for CCN(CC)CCOc1ccc(N2Cc3cc(OC)c(OC)cc3C2=O)cc1 tested with OVCAR-4 ovarian.
Given back: > 100 µM

###

# Test system: SF-295 CNS
# method description: NCI tumour cell line growth inhibition, 48 h
TGI: recorded values
Write the answer as a number in µM, unit excluded.

Cc1ccc(S(=O)(=O)NN=C2C(C)CC(C(C)(C)C)CC2C)cc1 (stereo not given) : 33.1

Let's switch to this compound now.
Asked: Please give the documented TGI of COc1c(O)cc2c(c1CC=C(C)C)OC(=O)c1c(cc(O)c(CC=C(C)C)c1O)O2
Given back: 8.13
